system: S. cerevisiae Burl-1 ts mutant growth, BacTiter-Glo, 38.5C 24 h; assay: restored growth of temperature-sensitive Burl-1 yeast – whole organism, S. cerevisiae, Burl-1 ts mutant, luminescence, counter-screen for SUMOylation pathway inhibitor project, dose response (AID 463199)
Activity calls are given as the source filed them.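 How the source made its calls: active means AC50, the dose giving half-maximal effect, exceeds a fixed cutoff for a compound that rescues yeast growth under heat; inactive means the rest, inconclusive results apart.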
Labels: active, inactive

                                    compound  classlabel
 0  O=C(/C=C/c1cccc([N+](=O)[O-])c1)NCCSCc1ccc(Cl)cc1Cl    inactive
 1  COC(=O)c1ccc(SCC(=O)N2CCC(C)CC2)c([N+](=O)[O-])c1    inactive
 2             CO/N=C/c1ccc(Oc2ccc(C)cc2)nc1    inactive
 3  Cc1ccc(C(=O)N/C(=C\c2cccs2)C(=O)NCCc2c[nH]c3ccccc23)cc1    inactive
 4     Cc1ccc(C(=O)O)cc1N=Cc1cc(Br)cc(Br)c1O    inactive
 5  CCOC(=O)c1cc2c(ccn2-c2ccc(F)cc2)n1CC(=O)N1CCN(C(=O)c2ccco2)CC1    inactive
 6  O=C1c2ccccc2NC(c2ccccc2O)N1O (stereo not given)    inactive
 7  COc1cccc(NC(=O)c2nn(C34CC5CC(CC(C5)C3)C4)cc2[N+](=O)[O-])c1    inactive
 8  COC(=O)c1ccc(CSc2nc3ccccc3c(=O)n2CC(C)C)o1    inactive
 9  O=C(CSc1nc2ccc(Nc3nc(N4CCOCC4)nc(N4CCOCC4)n3)cc2s1)N1CCOCC1    inactive
10  CC(C)COc1ccc(C(=O)Nc2ccc([N+](=O)[O-])cc2)cc1    inactive
11  CC(=O)N(C(C)=O)c1c(C#N)c(C)n(-c2ccccc2)c1C(=O)c1ccccc1    inactive
12  COc1ccc(-c2cc(C#N)nc(N3CCN(c4ccccc4)CC3)n2)cc1    inactive
13  CC(=O)N1CCc2cc(S(=O)(=O)CCC(=O)N3CCN(C(=O)c4ccco4)CC3)ccc21    inactive
14  COc1cc(NC(=O)c2cc(Cl)ccc2Cl)ccc1-c1cc2ccccc2oc1=O    inactive
15          COc1ccc(OCCC(=O)c2ccc(OC)cc2)cc1    inactive
16          Oc1cccc2ccc(/C=C/c3ccccc3Br)nc12    inactive
17  Cn1c(=O)[nH]c(=O)c2c1nc(NCCN)n2CCOc1ccccc1    inactive
18  O=C1CCc2cc(S(=O)(=O)N3CCC(C(=O)NC4CCCC4)CC3)ccc2N1    inactive
19  CCCCCNC(=O)c1ccc2c(=O)n(CC3CCCO3)c(=O)[nH]c2c1 (stereo not given)      active
20         COc1ccc(NC(=S)Nc2ccccc2OC)c(OC)c1    inactive
21      C/C=C/C(=O)N1c2ccc(C)cc2C(C)=CC1(C)C    inactive
22  CC1=CS(=O)(=O)CC1Sc1ncn[nH]1 (stereo not given)    inactive
23  COC(=O)c1ccc(N2C(=O)CC(NCc3ccccc3)C2=O)cc1 (stereo not given)    inactive
24   CCOC(=O)c1sc(N/N=C/c2ccc(N(C)C)cc2)nc1C    inactive
25  Cc1ccccc1C(=O)NNC(=S)Nc1cccc(C(F)(F)F)c1    inactive
26                     Nc1cc(Cl)ccc1N1CCOCC1    inactive
27  Cc1ccc2c(c1)C(=O)N1[C@H]3c4ccccc4OC[C@@H]3[C@H](c3ccccc3)[C@]1(C)C(=O)N2    inactive
28  CC(C)(C)C(=O)C(Cl)C(=O)Nc1ccccc1 (stereo not given)    inactive
29  CCN(CC)CCCNC(=O)C1c2ccccc2C(=O)N(CCOC)C1c1ccc(F)cc1 (stereo not given)    inactive
30  C#CCn1c(=NC(=O)CN2C(=O)CCC2=O)sc2cccc(OC)c21    inactive
31     CN(C)CCNC(=O)c1c(O)c2c([nH]c1=O)CCCC2    inactive
32   CCCCC(=O)N/N=C(\C)CC(=O)Nc1cc(Cl)ccc1OC    inactive
33  CCCN1C(=O)c2ccccc2NC1c1ccc(C)cc1 (stereo not given)    inactive
34                     Cc1nnc(N=c2ssnc2Cl)o1    inactive
35           O=c1c2ccccc2ncn1-c1ccc(Cl)cc1Cl    inactive
36  O=C(c1ccc(F)cc1)C(CN1CCOCC1)c1ccccc1 (stereo not given)    inactive
37    CCOC(=O)N1CCC(Nc2nc3ccccc3n3nnnc23)CC1    inactive
38  Cc1nn(C)c(C)c1/C=N/NC(=O)C(C)(C)Oc1ccc(Cl)cc1    inactive
39  Cc1nc(CC(=O)N/N=C/c2ccc(OCC(=O)O)cc2)cs1    inactive
40        O=C(CCc1ccccc1)NNC(=O)c1ccc(Br)cc1    inactive
41  CC(=O)N1CCN(CC(O)COc2ccc(OCc3ccccc3)cc2)CC1 (stereo not given)    inactive
42       COc1ccc2cc(C#N)c(Nc3cccc(F)c3)nc2c1    inactive
43        O=S(=O)(c1ccc(C2CCCCC2)cc1)N1CCCC1    inactive
44  COC(=O)CCC(=O)OC1(C)C(=O)C=C2C=C(C3CC3)N(Cc3ccc4c(c3)OCO4)C=C2C1=O (stereo not given)    inactive

The measurements presented in this section are drawn from PubChem BioAssay AID463199.
